Values were extracted from patent US20230105029A1.

Target: T1, cynomolgus monkey IL4Rα-his protein (cynomolgus monkey, UniProt A0A2K5V580 33-239)
T1 construct: Bought protein; also called Cynomolgus IL4Rα; Cyno-IL4Rα-his; not shown: his tag
Assay: indirect ELISA on coated cynomolgus IL4Rα-his
Recorded log10(EC50) by entry
Short version: log10 scale, EC50, nM.

Consider the following illustrative entries.
Binder	log10(EC50)
mouse antibody B8G11F2B7G5E8 (antibody, V domains shown, Mouse hybridoma mAb; also called Mouse B8G11F2B7G5E8; mAb B8G11F2B7G5E8) VH: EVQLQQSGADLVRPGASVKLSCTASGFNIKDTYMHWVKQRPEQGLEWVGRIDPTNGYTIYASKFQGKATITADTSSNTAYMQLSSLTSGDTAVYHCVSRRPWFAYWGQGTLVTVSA VL: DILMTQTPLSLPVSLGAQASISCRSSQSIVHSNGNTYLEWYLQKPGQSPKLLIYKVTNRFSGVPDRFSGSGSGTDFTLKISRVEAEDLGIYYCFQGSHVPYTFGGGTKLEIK	-0.30
chimeric antibody B8G11F2B7G5E8 (antibody, human IgG4 S228P, kappa, V domains shown, Mouse variable domains on human IgG4/kappa; also called Chimeric B8G11F2B7G5E8; chB8G11F2B7G5E8) VH: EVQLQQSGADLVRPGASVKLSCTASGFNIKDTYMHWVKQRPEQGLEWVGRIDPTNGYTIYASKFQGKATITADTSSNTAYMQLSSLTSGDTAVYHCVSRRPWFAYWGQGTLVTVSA VL: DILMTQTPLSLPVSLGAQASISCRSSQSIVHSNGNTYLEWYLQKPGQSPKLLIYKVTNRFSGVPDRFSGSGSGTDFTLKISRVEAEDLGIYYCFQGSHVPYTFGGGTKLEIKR	0.03
huB8G11F2B7G5E8-V14 (antibody, human IgG4 S228P, kappa, V domains shown, Humanized, human IgG4/kappa; also called huBSG11F2B7G5E8-V14) VH: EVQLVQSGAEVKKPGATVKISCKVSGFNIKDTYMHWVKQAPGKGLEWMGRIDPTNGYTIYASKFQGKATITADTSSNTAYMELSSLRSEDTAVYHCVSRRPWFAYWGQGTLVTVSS VL: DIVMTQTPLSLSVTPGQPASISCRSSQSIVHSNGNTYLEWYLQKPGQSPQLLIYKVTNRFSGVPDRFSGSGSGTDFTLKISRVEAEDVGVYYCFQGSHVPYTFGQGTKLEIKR	2.14
huB8G11F2B7G5E8-V4 (antibody, human IgG4 S228P, kappa, V domains shown, Humanized, human IgG4/kappa; also called huBSG11F2B7G5E8-V4) VH: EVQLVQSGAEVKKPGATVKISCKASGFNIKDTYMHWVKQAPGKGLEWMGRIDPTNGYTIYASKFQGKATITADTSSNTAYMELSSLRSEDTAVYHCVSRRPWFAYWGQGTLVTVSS VL: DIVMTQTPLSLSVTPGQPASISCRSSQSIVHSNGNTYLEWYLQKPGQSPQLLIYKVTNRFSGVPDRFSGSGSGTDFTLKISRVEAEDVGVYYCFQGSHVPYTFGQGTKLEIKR	0.85

Let us move to another entry and its log10(EC50).
Task: Look at this binder and give its reported log10(EC50). huB8G11F2B7G5E8-V2 (antibody, human IgG4 S228P, kappa, V domains shown, Humanized, human IgG4/kappa; also called huBSG11F2B7G5E8-V2) VH: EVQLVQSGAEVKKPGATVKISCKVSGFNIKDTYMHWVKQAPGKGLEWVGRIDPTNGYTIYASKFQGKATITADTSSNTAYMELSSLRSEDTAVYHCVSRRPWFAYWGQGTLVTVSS VL: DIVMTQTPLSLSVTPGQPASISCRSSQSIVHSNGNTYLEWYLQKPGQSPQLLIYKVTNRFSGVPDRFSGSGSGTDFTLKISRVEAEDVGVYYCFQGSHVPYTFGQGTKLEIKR
Result: 2.96
